biological target: recombinant human wild-type TTR (WT-TTR) (Homo sapiens (Human)); settings: read-out: IC50 ± S.D. (concentration inhibiting TTR amyloid fibril formation by 50%); WT-TTR 3.6 μM, pH 4.4, 72 hours at 37° C., mean of at least 3 determinations
So I've got a bunch of compounds here, and I need their pIC50 values.
// scale note: pIC50 = -log10(conc_M); give the bare number

// recorded pIC50 for Oc1c(Cl)cc(-c2cc(Cl)c(O)c(Cl)c2)cc1Cl [Compound 2OH-PCB80, reference compound] : 5.80

// recorded pIC50 for Cc1c(C(=O)O)coc1/C=C/c1ccc(Cl)o1 [AT09-B00] : 5.69

// recorded pIC50 for Cc1oc(CSCc2cc(C(=O)O)c(C)o2)cc1C(=O)O [AT09-A00] : 5.15
